// data source = patent US20050227999A1

- subject of test: rat brain N-type calcium channel subunits (α1B+α2δ+β1b cDNA subunits) (Rattus norvegicus, UniProt Q02294)
- Construct: expressed in transfected cells; host or cells: HEK 293
- Sequence (Q02294 whole entry): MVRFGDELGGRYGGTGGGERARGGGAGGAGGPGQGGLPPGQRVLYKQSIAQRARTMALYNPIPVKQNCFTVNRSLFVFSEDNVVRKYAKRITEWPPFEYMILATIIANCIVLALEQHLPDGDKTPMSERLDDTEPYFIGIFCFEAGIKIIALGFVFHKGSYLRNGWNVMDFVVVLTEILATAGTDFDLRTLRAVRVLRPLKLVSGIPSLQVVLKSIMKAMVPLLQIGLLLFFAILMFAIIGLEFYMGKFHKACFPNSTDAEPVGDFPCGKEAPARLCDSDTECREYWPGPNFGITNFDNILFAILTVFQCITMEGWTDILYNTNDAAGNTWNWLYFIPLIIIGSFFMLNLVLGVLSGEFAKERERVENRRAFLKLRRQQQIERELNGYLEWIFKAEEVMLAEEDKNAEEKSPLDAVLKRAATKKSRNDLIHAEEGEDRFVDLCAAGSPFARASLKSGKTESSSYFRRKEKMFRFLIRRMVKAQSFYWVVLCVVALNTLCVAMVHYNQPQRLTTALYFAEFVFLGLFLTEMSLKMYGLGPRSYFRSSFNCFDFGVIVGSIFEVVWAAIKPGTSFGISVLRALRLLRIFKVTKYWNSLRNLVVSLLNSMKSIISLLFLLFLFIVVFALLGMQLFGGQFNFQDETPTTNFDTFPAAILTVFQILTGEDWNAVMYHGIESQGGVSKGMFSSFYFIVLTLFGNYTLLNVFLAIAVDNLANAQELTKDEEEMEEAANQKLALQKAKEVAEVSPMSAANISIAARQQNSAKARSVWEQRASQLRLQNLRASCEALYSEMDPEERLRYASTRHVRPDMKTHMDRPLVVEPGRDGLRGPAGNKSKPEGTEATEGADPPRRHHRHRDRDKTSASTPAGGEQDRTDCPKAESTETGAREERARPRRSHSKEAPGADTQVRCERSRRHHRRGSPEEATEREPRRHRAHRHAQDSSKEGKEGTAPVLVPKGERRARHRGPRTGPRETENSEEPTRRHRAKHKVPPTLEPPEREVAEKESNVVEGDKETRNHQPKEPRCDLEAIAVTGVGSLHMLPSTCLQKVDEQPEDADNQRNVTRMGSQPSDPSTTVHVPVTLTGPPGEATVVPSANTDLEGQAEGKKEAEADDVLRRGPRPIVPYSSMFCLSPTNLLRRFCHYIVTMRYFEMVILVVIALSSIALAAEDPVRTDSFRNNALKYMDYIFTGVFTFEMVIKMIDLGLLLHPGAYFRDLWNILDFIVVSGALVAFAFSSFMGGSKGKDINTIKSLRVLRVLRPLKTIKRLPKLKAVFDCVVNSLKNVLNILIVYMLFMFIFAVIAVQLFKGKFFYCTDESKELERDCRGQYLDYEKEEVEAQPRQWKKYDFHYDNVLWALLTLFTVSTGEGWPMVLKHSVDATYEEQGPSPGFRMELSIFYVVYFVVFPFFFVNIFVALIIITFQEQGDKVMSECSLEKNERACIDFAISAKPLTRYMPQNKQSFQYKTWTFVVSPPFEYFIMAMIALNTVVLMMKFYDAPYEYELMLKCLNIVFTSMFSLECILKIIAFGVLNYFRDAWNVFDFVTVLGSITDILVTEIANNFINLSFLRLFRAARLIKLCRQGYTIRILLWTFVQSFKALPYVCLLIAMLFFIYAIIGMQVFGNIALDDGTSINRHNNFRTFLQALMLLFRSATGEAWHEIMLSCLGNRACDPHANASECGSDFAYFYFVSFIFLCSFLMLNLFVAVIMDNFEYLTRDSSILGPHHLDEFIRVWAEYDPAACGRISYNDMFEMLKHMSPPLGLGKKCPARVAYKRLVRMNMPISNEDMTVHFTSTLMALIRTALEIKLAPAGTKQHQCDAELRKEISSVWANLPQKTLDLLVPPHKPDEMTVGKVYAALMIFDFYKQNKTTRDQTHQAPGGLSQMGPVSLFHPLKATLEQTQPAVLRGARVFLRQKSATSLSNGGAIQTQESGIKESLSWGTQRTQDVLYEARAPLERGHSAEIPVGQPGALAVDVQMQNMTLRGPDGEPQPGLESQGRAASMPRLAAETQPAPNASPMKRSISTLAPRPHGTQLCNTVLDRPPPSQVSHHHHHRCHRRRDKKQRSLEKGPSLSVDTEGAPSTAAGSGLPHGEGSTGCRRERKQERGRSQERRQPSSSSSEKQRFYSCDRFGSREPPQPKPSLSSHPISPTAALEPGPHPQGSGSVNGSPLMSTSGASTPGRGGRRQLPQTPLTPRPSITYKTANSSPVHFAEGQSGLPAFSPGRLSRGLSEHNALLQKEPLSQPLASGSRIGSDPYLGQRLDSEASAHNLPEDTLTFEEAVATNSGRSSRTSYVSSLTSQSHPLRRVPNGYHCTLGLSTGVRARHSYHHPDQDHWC
- Sequence (P54290 25-944 partner limits assumed): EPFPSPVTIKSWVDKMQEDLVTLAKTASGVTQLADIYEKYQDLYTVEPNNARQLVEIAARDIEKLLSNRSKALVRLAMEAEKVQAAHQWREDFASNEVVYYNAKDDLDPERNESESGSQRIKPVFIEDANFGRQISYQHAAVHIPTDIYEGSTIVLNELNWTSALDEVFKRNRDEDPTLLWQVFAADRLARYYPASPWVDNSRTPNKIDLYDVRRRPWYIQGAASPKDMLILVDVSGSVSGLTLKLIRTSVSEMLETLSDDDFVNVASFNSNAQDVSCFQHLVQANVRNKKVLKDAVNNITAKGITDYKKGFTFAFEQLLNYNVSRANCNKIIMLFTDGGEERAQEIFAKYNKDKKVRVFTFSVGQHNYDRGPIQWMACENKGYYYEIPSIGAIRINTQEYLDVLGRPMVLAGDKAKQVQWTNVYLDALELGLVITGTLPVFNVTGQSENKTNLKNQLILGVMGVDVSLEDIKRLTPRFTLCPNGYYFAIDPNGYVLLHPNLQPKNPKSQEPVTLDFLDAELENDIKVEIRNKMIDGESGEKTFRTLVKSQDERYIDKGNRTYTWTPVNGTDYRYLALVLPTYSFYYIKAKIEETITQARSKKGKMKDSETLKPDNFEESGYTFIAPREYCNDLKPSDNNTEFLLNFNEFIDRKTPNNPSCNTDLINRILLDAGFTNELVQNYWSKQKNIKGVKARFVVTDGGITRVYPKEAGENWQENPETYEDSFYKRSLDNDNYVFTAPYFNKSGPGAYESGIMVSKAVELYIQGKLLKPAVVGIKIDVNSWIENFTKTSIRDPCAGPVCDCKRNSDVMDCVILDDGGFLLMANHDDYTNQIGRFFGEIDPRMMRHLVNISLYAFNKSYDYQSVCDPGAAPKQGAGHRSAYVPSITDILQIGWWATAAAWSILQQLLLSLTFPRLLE
- Sequence (P54290 945-1091 partner limits assumed): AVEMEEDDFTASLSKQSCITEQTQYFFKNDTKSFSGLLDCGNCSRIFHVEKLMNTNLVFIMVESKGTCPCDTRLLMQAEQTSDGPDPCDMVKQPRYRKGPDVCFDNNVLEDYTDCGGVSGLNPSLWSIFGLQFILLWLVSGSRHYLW
- Sequence (P54283 whole entry partner): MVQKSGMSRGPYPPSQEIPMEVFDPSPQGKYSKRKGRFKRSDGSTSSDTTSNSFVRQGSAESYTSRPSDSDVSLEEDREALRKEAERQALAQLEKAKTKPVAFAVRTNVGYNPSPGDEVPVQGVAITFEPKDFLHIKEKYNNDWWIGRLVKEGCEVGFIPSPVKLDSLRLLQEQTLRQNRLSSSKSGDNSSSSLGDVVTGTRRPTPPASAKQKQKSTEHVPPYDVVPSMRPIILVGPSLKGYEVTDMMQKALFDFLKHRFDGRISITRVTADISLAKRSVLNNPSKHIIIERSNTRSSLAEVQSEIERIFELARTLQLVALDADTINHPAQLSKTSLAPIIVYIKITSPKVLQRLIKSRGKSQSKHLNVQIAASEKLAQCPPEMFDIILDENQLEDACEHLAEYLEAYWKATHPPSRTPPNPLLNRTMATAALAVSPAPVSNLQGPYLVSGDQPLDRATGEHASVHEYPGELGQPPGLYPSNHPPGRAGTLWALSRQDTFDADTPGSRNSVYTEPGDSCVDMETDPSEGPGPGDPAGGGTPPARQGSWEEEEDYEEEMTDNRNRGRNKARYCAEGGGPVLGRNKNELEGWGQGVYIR
- experiment: N-type calcium channel block, whole cell patch clamp in transfected HEK 293 cells
- Type: cell-based
- condition context: pulse frequency 0.2 Hz (frequency dependent block); holding potential −80 mV to +10 mV; read-out: IC50 @ 0.2 Hz
observed property: pIC50
Kindly note that pIC50 refers to -log10 of the concentration in mol/L and answer with the value alone.

Example results:
O=C(CN1CCN(C(c2ccccc2)c2cccc(Cl)c2Cl)CC1)N(c1ccccc1)c1ccccc1 (stereo not shown); 6.62
O=C(CN1CCN(C(c2ccccc2)c2ccccc2Cl)CC1)N(c1ccccc1)c1ccccc1 (stereo not shown); 7.28
O=C(CN(c1ccccc1)c1ccccc1)N1CCN(C(c2ccccc2)c2ccccc2)CC1; 5.18

# evaluate next
Request: Please give the measured pIC50 for this compound: O=C(CN(c1ccccc1)c1ccccc1)N1CCN(C(c2ccccc2)c2cccc(Cl)c2Cl)CC1 (stereo not shown)
Result: 6.85
